Quick reference for Ki among some molecules
Molecular target: human Na,K-ATPase α1β1FXYD1 (Homo sapiens (Human), UniProt P05023)
Format: biochemical
Details: read-out: Ki in nM ± SEM α1β1
MEASURED QUANTITY: Ki (nM)

>>> reported_value("CCCN1CCC(O[C@@H]2[C@H](C)O[C@@H](O[C@@H]3[C@H](C)O[C@@H](O[C@H]4CC[C@@]5(C)C(CCC6C5C[C@H](O)[C@]5(C)[C@@H](C7=CC(=O)OC7)CC[C@]65O)C4)C[C@@H]3O)C[C@@H]2O)OC(C)C1 (some centres unmarked)")
87.7
>>> reported_value("CC1CN(CC2CC2)CCC(O[C@@H]2[C@H](C)O[C@@H](O[C@@H]3[C@H](C)O[C@@H](O[C@H]4CC[C@@]5(C)C(CCC6C5C[C@H](O)[C@]5(C)[C@@H](C7=CC(=O)OC7)CC[C@]65O)C4)C[C@@H]3O)C[C@@H]2O)O1 (some centres unmarked)")
95.8

----------
Target: human Na,K-ATPase α2β2FXYD1 (Homo sapiens (Human), UniProt P50993)
Format: biochemical
Settings: read-out: Ki in nM ± SEM α2β2
MEASURED QUANTITY: Ki (nM)

>>> reported_value("CC1CN(C2CC2)CCC(O[C@@H]2[C@H](C)O[C@@H](O[C@@H]3[C@H](C)O[C@@H](O[C@H]4CC[C@@]5(C)C(CCC6C5C[C@H](O)[C@]5(C)[C@@H](C7=CC(=O)OC7)CC[C@]65O)C4)C[C@@H]3O)C[C@@H]2O)O1 (stereo partly shown)")
13
>>> reported_value("CC1CN(C2CCCC2)CCC(O[C@@H]2C(C)O[C@@H](OC3C(C)OC(O[C@H]4CC[C@@]5(C)C(CCC6C5CC(O)[C@]5(C)[C@@H](C7=CC(=O)OC7)CC[C@]65O)C4)C[C@@H]3O)C[C@@H]2O)O1 (stereo in doubt)")
33.5
>>> reported_value("CC1CN(C)CCC(O[C@@H]2[C@H](C)O[C@@H](O[C@@H]3[C@H](C)O[C@@H](O[C@H]4CC[C@@]5(C)C(CCC6C5C[C@H](O)[C@]5(C)[C@@H](C7=CC(=O)OC7)CC[C@]65O)C4)C[C@@H]3O)C[C@@H]2O)O1 (stereo partly shown)")
20.4
>>> reported_value("CC1CN(CCS(N)(=O)=O)CCC(O[C@@H]2C(C)O[C@@H](OC3C(C)OC(O[C@H]4CC[C@@]5(C)C(CCC6C5CC(O)[C@]5(C)[C@@H](C7=CC(=O)OC7)CC[C@]65O)C4)C[C@@H]3O)C[C@@H]2O)O1 (stereo in doubt)")
31.5

----------
Tested on: human Na,K-ATPase α2β1FXYD1
Type: biochemical
MEASURED QUANTITY: Selectivity Ki ratio α1β1/α2β1

>>> reported_value("CC1CN(CS(C)(=O)=O)CCC(O[C@@H]2C(C)O[C@@H](OC3C(C)OC(O[C@H]4CC[C@@]5(C)C(CCC6C5CC(O)[C@]5(C)[C@@H](C7=CC(=O)OC7)CC[C@]65O)C4)C[C@@H]3O)C[C@@H]2O)O1 (stereo in doubt)")
6.9
>>> reported_value("CCCN1CCC(O[C@@H]2[C@H](C)O[C@@H](O[C@@H]3[C@H](C)O[C@@H](O[C@H]4CC[C@@]5(C)C(CCC6C5C[C@H](O)[C@]5(C)[C@@H](C7=CC(=O)OC7)CC[C@]65O)C4)C[C@@H]3O)C[C@@H]2O)OC(C)C1 (stereo partly shown)")
4.8
>>> reported_value("CC1CN(CC2CC2)CCC(O[C@@H]2[C@H](C)O[C@@H](O[C@@H]3[C@H](C)O[C@@H](O[C@H]4CC[C@@]5(C)C(CCC6C5C[C@H](O)[C@]5(C)[C@@H](C7=CC(=O)OC7)CC[C@]65O)C4)C[C@@H]3O)C[C@@H]2O)O1 (stereo partly shown)")
5.2
>>> reported_value("CC1CN(C[Si](C)(C)C)CCC(OC2C(O)CC(OC3C(O)CC(OC4CCC5(C)C(CCC6C5CC(O)C5(C)C(C7=CC(=O)OC7)CCC65O)C4)OC3C)OC2C)O1 (stereo not shown)")
3
